Origin of values: patent US20100003332A1

- assay.comment: Bioavailability test: blood drug concentration after oral administration of suspensions to rats
- Type: in vivo
- condition: rat, suspension in distilled water, male rats fasted for 12 hours, samples to 7 hours, read-out: AUC (area under the blood drug concentration-time curve)
measured.property: AUC
Quote the value and follow it with the unit of measurement.

Query: What does the data say about its AUC? Entry: O=C1CCc2cc(OCCCCc3nnnn3C3CCCCC3)ccc2N1 [Cilostazol raw material, cilostazol]
Reply: 580 ng·h/mL

---

- assay.comment: Particle size of cilostazol (lactose/SLS ratio) after redispersion of slurry or dried powder in distilled water, laser scattering particle size analyzer
- Assay type: physicochemical
- condition: drying powder redispersed; Lactose 360 g, SLS 90 g
- Method: 0.45 g of cilostazol (Dongwoo Co., Ltd.) and 0.15 g of hydroxypropyl cellulose were added to 5.1 ml of the saturated aqueous solution of lactose. […] The slurry mixture thus obtained was high-pressure filtered (pressure: 640 mmHg) using a sound pressure and freeze dried for 1 day to obtain powders.
measured.property: Average particle size (nm)
Provide only the numeric value, understood in nm.

Query: What does the data say about its Average particle size? Entry: "O=C1CCc2cc(OCCCCc3nnnn3C3CCCCC3)ccc2N1"
Reply: 200
